# assay.name: Proteolysis during production detected using mass spectroscopy
# Format: physicochemical
# conditions.used: proteolytic stability
value.kind: Proteolysis During Production?

APL-F: Fc-linker fusion of apelin analogue QRPRLSHKGPAPY (M11A, F13Y) (protein) MRAWIFFLLCLAGRALADKTHTSPPSPAPEAAGGPSVFLFPPKPKDTLMISRTPEVTCVVVDVSHEDPEVKFNWYVDGVEVHNAKTKPREEQYNSTYRVVSVLTVLHQDWLNGKEYKCKVSNKALPAPIEKTISKAKGQPREPQVYTLPPSREEMTKNQVNLTCLVKGFYPSDIAVEWESNGQPENNYKTTPPVLDSDGSFFLNSTLTVDKSRWQQGNVFSCSVMHEALHNHYTQKSLSLSPGKGGGGSGGGGSGGGGSQRPRLSHKGPAPY | No
APL-J: Leader-Fc-linker fusion of apelin analogue QRPRLSHKGPAAY (M11A, P12A, F13Y) (protein) MRAWIFFLLCLAGRALADKTHTSPPSPAPEAAGGPSVFLFPPKPKDTLMISRTPEVTCVVVDVSHEDPEVKFNWYVDGVEVHNAKTKPREEQYNSTYRVVSVLTVLHQDWLNGKEYKCKVSNKALPAPIEKTISKAKGQPREPQVYTLPPSREEMTKNQVNLTCLVKGFYPSDIAVEWESNGQPENNYKTTPPVLDSDGSFFLNSTLTVDKSRWQQGNVFSCSVMHEALHNHYTQKSLSLSPGKGGGGSGGGGSGGGGSQRPRLSHKGPAAY | No
